Molecular target: human Cav3.2 channels (Homo sapiens)
Construct: human Cav3.2 channel ORF (Open Reading Frame) gene
Assay: T-type calcium blocking action: intracellular calcium (Fluo-4 AM fluorescence) in HEK293 cells steadily expressing human Cav3.2 channels
Conditions: HEK293 cells expressing human Cav3.2; KCl-stimulated calcium influx, Fluo-4 fluorescence; Tables 1 to 3
Observed Property: IC50 (µM)

The examples below pair each entry with its known result.
# Compound, Output Unit, IC50
records = [
    ("O=C(Cc1ccc(C(F)(F)F)cc1F)N[C@@H]1CCN(c2cncc(C(F)(F)F)c2)C1", "µM", 0.18),
    ("O=C(Cc1ccc(C2CC2)cc1)N[C@@H]1CCN(c2cc(C(F)(F)F)c[n+]([O-])c2)C1 [Example 134A]", "µM", 0.93),
]

[I] O=C(Cc1ccc(C2CC2)cc1)NC1(C(F)(F)F)CCN(c2cncc(C(F)(F)F)c2)C1 (stereo not shown)
[II] O=C(Cc1ccc2[nH]nnc2c1)N[C@@H]1CCN(c2ccc(C(F)(F)F)nc2)C1
[III] O=C(Cc1cc(F)cc(Cl)c1)N[C@@H]1CCN(c2cncc(C(F)(F)F)c2)C1
[IV] O=C(Cc1ccc(C2CC2)cc1)N[C@@H]1CCN(c2ccc(C(F)(F)F)nc2)C1
Sort the 4 compounds by IC50; largest first, smallest last. State the ranking by listing the labels in the requested order.
II, III, I, IV

###

Target: human Cav3.2 channels (Homo sapiens)
Construct: human Cav3.2 channel ORF (Open Reading Frame) gene
Assay: T-type calcium blocking action: intracellular calcium (Fluo-4 AM fluorescence) in HEK293 cells steadily expressing human Cav3.2 channels
Details: HEK293 cells expressing human Cav3.2; KCl-stimulated calcium influx, Fluo-4 fluorescence; Tables 1 to 3
pIC50: −log10 of the molar value. Structures can show the parent of a compound that is named as a salt.
Observed Property: pIC50

[a] O=C(Cc1ccc2cc[nH]c2c1)NC1CN(c2cncc(C(F)(F)F)c2)C1
[b] CC(C)c1ccc(CC(=O)NC2CN(c3cncc(C(F)(F)F)c3)C2)cc1
Problem: Given the entries a and b , determine which has the lower reported pIC50. Answer by quoting the chosen item's label.
a
(a: 6.89, b: 7.15)

[1] O=C(Cc1ccc(C2CC2)cc1)N[C@@H]1CCN(c2cc(C(F)(F)F)ccn2)C1
[2] Cn1nnc2cc(CC(=O)N[C@@H]3CCN(c4ccc(C(F)(F)F)nc4)C3)ccc21
When the recorded pIC50 values are compared, which is smaller: that of 1 or that of 2 ? To answer, give the label that identifies your chosen option.
1

[a] Cn1ccc2ccc(CC(=O)N[C@@H]3CCN(c4cncc(C(F)(F)F)c4)C3)cc21
[b] O=C(Cc1ccc2cc[nH]c2c1)N[C@@H]1CCN(c2cncc(C(F)(F)F)c2)C1
[c] O=C(Cc1ccc(C2CC2)cc1)N[C@@H]1CCN(c2cncc(C(F)(F)F)c2)C1
[d] CN(C)C(C(=O)N[C@@H]1CCN(c2cncc(C(F)(F)F)c2)C1)c1ccc(C2CC2)cc1 (some centres unmarked) [Example 138, hydrochloride]
Order the records by pIC50, with each subsequent value no larger than the one before. // respond by listing labels in the order requested
c, a, b, d
(c: 7.89, a: 7.49, b: 7.21, d: 6.16)

###

Biological target: human Cav3.2 channels (Homo sapiens, UniProt O95180)
Construct: human Cav3.2 channel ORF (Open Reading Frame) gene; expressed in transfected cells; host or cells: HEK293 cells (ATCC No. CRL-1573), pcDNA3.1(+) plasmid
Sequence (O95180 whole entry): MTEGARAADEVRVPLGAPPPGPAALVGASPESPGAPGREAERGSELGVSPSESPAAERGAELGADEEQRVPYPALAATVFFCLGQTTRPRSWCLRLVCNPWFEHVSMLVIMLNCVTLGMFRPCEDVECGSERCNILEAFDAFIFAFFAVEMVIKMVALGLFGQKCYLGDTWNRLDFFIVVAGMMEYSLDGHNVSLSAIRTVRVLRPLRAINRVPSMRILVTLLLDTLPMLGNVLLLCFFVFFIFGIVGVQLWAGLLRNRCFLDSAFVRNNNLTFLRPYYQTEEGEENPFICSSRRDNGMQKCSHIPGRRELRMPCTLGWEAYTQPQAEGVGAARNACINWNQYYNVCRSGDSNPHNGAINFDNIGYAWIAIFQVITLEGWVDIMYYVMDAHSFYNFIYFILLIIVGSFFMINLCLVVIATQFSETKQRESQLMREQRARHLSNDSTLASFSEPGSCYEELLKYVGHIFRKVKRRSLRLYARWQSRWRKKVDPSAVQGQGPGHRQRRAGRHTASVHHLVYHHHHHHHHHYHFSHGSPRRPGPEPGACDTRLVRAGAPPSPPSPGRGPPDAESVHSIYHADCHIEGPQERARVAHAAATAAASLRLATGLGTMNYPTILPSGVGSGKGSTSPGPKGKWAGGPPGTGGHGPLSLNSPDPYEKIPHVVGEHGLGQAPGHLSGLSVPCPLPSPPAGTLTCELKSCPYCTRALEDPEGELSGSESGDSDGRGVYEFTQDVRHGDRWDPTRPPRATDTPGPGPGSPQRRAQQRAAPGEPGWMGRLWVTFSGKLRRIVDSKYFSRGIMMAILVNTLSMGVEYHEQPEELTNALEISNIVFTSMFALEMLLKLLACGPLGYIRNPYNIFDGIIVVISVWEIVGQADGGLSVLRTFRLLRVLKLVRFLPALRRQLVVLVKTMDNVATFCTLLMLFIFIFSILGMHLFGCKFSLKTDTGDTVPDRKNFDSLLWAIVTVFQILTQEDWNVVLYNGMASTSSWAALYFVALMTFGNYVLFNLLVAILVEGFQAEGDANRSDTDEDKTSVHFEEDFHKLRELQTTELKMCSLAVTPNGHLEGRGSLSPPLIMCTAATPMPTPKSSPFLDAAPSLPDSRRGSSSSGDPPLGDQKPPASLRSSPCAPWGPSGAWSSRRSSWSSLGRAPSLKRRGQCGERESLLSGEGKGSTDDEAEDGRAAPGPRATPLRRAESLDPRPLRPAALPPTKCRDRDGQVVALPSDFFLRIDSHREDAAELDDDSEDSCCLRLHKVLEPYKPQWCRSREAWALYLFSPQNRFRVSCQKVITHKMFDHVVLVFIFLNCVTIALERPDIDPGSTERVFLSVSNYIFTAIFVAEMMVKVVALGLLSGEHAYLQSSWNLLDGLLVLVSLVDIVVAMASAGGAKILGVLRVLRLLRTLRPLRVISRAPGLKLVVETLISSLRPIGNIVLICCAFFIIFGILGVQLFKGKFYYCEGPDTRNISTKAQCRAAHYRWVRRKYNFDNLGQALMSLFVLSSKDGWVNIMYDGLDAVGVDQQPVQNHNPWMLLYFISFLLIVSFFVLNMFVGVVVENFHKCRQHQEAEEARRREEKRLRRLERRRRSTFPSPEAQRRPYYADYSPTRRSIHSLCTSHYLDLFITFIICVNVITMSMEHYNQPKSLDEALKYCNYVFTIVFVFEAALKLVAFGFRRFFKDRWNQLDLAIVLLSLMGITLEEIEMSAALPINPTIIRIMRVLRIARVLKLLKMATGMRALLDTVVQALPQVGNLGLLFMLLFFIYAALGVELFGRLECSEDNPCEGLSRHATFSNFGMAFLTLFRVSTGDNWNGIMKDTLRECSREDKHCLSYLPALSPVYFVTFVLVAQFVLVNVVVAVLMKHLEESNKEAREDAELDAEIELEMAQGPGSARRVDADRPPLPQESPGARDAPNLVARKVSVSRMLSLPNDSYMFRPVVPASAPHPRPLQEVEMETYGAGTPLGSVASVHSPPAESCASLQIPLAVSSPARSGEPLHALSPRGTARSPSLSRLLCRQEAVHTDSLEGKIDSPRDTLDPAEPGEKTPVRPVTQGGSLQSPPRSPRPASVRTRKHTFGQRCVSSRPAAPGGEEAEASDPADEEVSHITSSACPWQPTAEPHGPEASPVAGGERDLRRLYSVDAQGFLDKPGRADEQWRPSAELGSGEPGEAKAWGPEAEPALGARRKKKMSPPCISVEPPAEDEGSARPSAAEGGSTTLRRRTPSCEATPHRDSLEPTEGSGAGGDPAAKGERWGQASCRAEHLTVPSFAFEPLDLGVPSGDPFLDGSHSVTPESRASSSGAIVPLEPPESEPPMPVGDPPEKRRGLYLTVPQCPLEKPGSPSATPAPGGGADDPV
Experiment: T-type calcium blocking action: intracellular calcium (Fluo-4 AM fluorescence) in HEK293 cells steadily expressing human Cav3.2 channels
Type: cell-based
Conditions: HEK293 cells expressing human Cav3.2; KCl-stimulated calcium influx, Fluo-4 fluorescence; Tables 1 to 3
Observed Property: IC50 (nM)

Consider the worked cases shown below.
# Molecule, Output Unit, Recorded Result
measured = [
    ("O=C(Cc1ccc(N2C[C@@H]3CC[C@H]2CO3)cc1)N[C@@H]1CCN(c2cncc(C(F)(F)F)c2)C1 [Example 155]", "nM", 75),
    ("CCC1(NC(=O)Cc2ccc(C3CC3)cc2)CCN(c2cncc(C(F)(F)F)c2)C1 (stereo not drawn) [Example 43]", "nM", 190),
    ("Cn1ncc2cc(CC(=O)N[C@@H]3CCN(c4nc(C(F)(F)F)cs4)C3)ccc21 [Example 143]", "nM", 120),
    ("COC(=O)C1(NC(=O)Cc2ccc3cc[nH]c3c2)CCN(c2cncc(C(F)(F)F)c2)C1 (stereo not drawn) [Example 37]", "nM", 27),
]

[A] O=C(Cc1ccc(C(F)(F)F)nc1)N[C@@H]1CCN(c2cncc(C(F)(F)F)c2)C1 [Example 82]
[B] COC(=O)C1(NC(=O)Cc2ccc(C3CC3)cc2)CCN(c2cncc(C(F)(F)F)c2)C1 (stereo not drawn) [Example 13]
Returns: the label, A or B , whose recorded IC50 is the lower number. Mark your selection by writing its label.
B
